Source listed as patent US10428080B2.

Entries and their measured IC50 follow.
Target: TBK1 (Homo sapiens)
Sequence (Q9UHD2 1-729): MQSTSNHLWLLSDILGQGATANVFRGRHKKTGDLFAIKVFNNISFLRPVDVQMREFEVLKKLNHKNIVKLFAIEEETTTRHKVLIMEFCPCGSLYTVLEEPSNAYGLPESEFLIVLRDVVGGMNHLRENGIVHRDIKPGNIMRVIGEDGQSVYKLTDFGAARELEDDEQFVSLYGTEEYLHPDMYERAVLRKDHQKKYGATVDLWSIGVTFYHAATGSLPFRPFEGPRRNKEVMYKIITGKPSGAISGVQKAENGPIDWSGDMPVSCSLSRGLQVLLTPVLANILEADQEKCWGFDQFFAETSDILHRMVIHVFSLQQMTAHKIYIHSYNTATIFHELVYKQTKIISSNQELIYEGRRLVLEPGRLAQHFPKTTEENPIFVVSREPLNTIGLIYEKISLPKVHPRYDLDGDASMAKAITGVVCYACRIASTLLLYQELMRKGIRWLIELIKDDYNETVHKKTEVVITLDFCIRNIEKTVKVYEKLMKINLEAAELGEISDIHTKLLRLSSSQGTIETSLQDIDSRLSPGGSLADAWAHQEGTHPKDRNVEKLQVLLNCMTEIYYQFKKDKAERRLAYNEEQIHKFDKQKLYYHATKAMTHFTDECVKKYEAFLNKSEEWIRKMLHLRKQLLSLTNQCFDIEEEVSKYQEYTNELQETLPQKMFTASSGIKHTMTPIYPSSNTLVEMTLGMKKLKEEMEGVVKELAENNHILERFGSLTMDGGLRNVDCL
Method Description: TBK Biochemical Assay
Experimental Setup: read-out: TBK1 IC50
Where a name gives a salt, the structure may show the parent alone.

Molecule	Target	IC50
COc1cc(C(=O)N2CCCCC2)ncc1-c1cc2nccc(-c3ccc(N4CCC(F)C4)c(C#N)c3)c2o1 (stereo in doubt) [Compound 384]	TBK1 (Homo sapiens)	< 100 nM
CN(C)C(=O)c1ccc(-c2cc3nccc(-c4ccc(OC5CC(C)(C)NC(C)(C)C5)c(C#N)c4)c3o2)cc1 [Compound 216]	TBK1 (Homo sapiens)	> 5000 nM
COc1cc(C(=O)N(C)C)ccc1-c1cc2nccc(-c3ccc(OCC4CCNCC4)c(C#N)c3)c2o1 [Compound 155]	TBK1 (Homo sapiens)	< 100 nM

For COc1cc(C(=O)NC2CN3CCC2CC3)cnc1-c1cc2nccc(-c3ccc(N4CC[C@H](F)C4)c(C#N)c3)c2o1 (some centres unmarked) [Compound 441] , what is its reported IC50? < 100 nM

Quick one: IC50 of CN(C)C(=O)c1ccc(-c2cc3nccc(-c4ccc(N5CCC(N(C)C6CC6)C5)c(C#N)c4)c3o2)cc1 (centres unmarked) [Compound 179] ? 100 to 1000 nM

Suppose we examine the molecule COc1cc(C(=O)N(C)C)ccc1-c1cc2nccc(-c3ccc(C(C)(C)N4CCOCC4)c(C#N)c3)c2o1 [Compound 235, hydrochloride] ; what IC50 value has been reported? 100 to 1000 nM

Which IC50 value belongs to COc1cc(C(=O)N(C)C)ccc1-c1cc2nccc(-c3ccc(OC4[C@H](C)COC[C@H]4C)c(C#N)c3)c2o1 (single isomer, unassigned) [Compound 231] ? < 100 nM

Reported IC50, molecule COc1cc(C(=O)N(C)C)ccc1-c1cc2nccc(-c3cc(C#N)c(OC4CCOCC4)cn3)c2o1 [Compound 161] : ____ 100 to 1000 nM

Give the measured IC50 of COc1cc(C(=O)N2C[C@H]3C[C@@H](O)C[C@H]3C2)ccc1-c1cc2nccc(-c3ccc(OC4CCOCC4)c(C#N)c3)c2o1 [Compound 32] . < 100 nM

Which IC50 is listed for COc1cc(C(=O)N(C)CCO)cnc1-c1cc2nccc(-c3ccc(OC4CCOCC4)c(C#N)n3)c2o1 [Compound 327, hydrochloride] ? < 100 nM

Suppose we examine the molecule COc1cc(C(=O)O)ccc1-c1cc2nccc(-c3ccc(OC4CCOCC4)c(C#N)c3)c2o1 [Compound 21] ; what IC50 value has been reported? < 100 nM

Field request: IC50 | item: COc1cc(C(=O)N(C)C)cnc1-c1cc2nccc(-c3ccc(OC4CCOCC4)c(C#N)n3)c2o1 [Compound 316] < 100 nM

Which IC50 value belongs to COc1cc(C(=O)NC(C)(C)CCN(C)C)ccc1-c1cc2nccc(-c3ccc(NC4CCOCC4)c(C#N)c3)c2o1 [Compound 514] ? < 100 nM

What IC50 value was documented for this molecule, CN(C)C(=O)c1ccc(-c2cc3ncc(F)c(-c4ccc(OC5CCOCC5)c(C#N)c4)c3o2)c(F)c1 [Compound 301] ? < 100 nM
